The entries below are paired with their reported PBM binding z-score.
test system: FXR:RXRa (NR concentration 270 nM, RXRa partner concentration 90 nM); experiment: PBM binding z-score (relative to random genomic background probes); higher = stronger binding; sequences stand for … in GC…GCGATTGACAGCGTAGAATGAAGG
measured.metric: PBM binding z-score

ACAGACAGGTAATGAAGGTAACTCAGGCTATCAT	0.224
CTACCAAGGTGAACTAGGTCGTTGATTACTATTC	1.2
TAATATAGGTAAATGCTAGGTGAAAGTCCGATCT	0.659
CCTAGTTGGTCAAGGTTACACACGCTATAGGTAC	1.22
TCTCTTAGTTGAAGGGCAACCGACGAGTCCGTTT	0.776
ACTAGTTGGTCAGCTGAGGTCACGCACAATTCGG	3.89
